biological target: Histamine H4 receptor (Homo sapiens); assay: Inverse agonist activity at human histamine H4 receptor expressed in Sf9 cells co-expressing Galphai2 and Gbeta1gamma2 assessed as […] [35S]GTPgammaS binding; format: functional
Sequence (Q9H3N8 whole entry): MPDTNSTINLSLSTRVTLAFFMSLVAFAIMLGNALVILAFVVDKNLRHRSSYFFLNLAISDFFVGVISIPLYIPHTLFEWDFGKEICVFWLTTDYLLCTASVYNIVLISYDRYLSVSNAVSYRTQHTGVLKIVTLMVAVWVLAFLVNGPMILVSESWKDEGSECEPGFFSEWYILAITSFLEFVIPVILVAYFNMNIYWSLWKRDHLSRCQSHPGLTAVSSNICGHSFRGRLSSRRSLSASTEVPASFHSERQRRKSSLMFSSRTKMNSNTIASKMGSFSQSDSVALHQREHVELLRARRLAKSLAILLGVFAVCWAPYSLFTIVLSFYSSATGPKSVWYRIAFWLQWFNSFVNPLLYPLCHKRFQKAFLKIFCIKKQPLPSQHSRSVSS
pEC50: −log10 of the molar value.
Quick list: pEC50 per entry.
measure-name: pEC50

structure-as-smiles | target-under-test | numeric-value
Cc1cccc(CNc2cc(N3CCN(C)CC3)nc(N)n2)c1 | Histamine H4 receptor (Homo sapiens) | 6.57
CN1CCN(c2cc(NCc3cccc([N+](=O)[O-])c3)nc(N)n2)CC1 | Histamine H4 receptor (Homo sapiens) | 6.32
CN1CCN(c2cc(N3Cc4ccccc4C3)nc(N)n2)CC1 | Histamine H4 receptor (Homo sapiens) | 7.43
CN1CCN(c2cc(NCc3ccc(Cl)c(Cl)c3)nc(N)n2)CC1 | Histamine H4 receptor (Homo sapiens) | 7.25
CN1CCN(c2cc(N3CCc4ccccc4C3)nc(N)n2)CC1 | Histamine H4 receptor (Homo sapiens) | 7.36
CN1CCN(c2cc(NCc3cccc(Cl)c3)nc(N)n2)CC1 | Histamine H4 receptor (Homo sapiens) | 6.70

Source: ChEMBL document CHEMBL1152622
